- system.tested: erythrocyte leaky ghost Ca^2+—Mg^2+-ATPase (PM Ca^2+ pump) (Homo sapiens, UniProt P23634)
- Construct: Human erythrocyte leaky ghosts (Jarrett et al. (1978)) were assayed for ATPase; from tissue; host or cells: human erythrocyte leaky ghosts prepared from human blood
- assay.details: Ca2+-Mg2+-ATPase assay with human erythrocyte leaky ghosts (fluorometric coupled enzyme assay)
- Assay type: biochemical
- settings: human erythrocyte leaky ghosts; read-out: concentration producing 50% inhibition of erythrocyte leaky ghost Ca^2+—Mg^2+-ATPase
Ends that are not written are not given here.
parameter.measured: pIC50
The value called pIC50 is obtained by taking minus log10 of the concentration in mol/L.

Record VSNSNWPSFPSSGGG-NH2 [caloxin 2A1, VSNSNWPSFPSSGGG-amide] ; system erythrocyte leaky ghost Ca^2+—Mg^2+-ATPase (PM Ca^2+ pump) (Homo sapiens, UniProt P23634); pIC50 = 3.40
